assayProtocol: Pharmacokinetics after intravenous bolus injection
Assay type: in vivo, rat
settings: male, Wistar, rat, plasma, iv; single i.v. bolus; GPE 30 mg/kg, G-2-MePE 10 mg/kg
Where a SMILES comes first, the peptide text is derived from it.
parameter: half-life (min)

>>> numericreadout("C[C@@]1(C(=O)N[C@@H](CCC(=O)O)C(=O)O)CCCN1C(=O)CN [Example G-2-MePE, Glycyl-L-2-methylprolyl-L-glutamic acid] (HELM PEPTIDE1{G.[C[C@@]1(C(=O)[*:2])CCCN1[*:1]].E}$$$$V2.0)")
20.7

----------
assayProtocol: Pharmacokinetics after intravenous bolus injection
Assay type: in vivo, rat
settings: male, Wistar, rat, plasma, iv; single i.v. bolus; GPE 30 mg/kg, G-2-MePE 10 mg/kg; read-out: estimated clearance from plasma (converted)
Where a SMILES comes first, the peptide text is derived from it.
parameter: clearance (mL/min)

>>> numericreadout("C[C@@]1(C(=O)N[C@@H](CCC(=O)O)C(=O)O)CCCN1C(=O)CN [Example G-2-MePE, Glycyl-L-2-methylprolyl-L-glutamic acid] (HELM PEPTIDE1{G.[C[C@@]1(C(=O)[*:2])CCCN1[*:1]].E}$$$$V2.0)")
0.502

Source: patent US20150224164A1
